Values were extracted from paper PMC4336329.

# system_tested: human ether-à-go-go-related gene (hERG) potassium channel (human);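 also: peak tail current of the secondary pulse compared with the same well before compound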
# Sequence (Q12809 whole entry, looked up): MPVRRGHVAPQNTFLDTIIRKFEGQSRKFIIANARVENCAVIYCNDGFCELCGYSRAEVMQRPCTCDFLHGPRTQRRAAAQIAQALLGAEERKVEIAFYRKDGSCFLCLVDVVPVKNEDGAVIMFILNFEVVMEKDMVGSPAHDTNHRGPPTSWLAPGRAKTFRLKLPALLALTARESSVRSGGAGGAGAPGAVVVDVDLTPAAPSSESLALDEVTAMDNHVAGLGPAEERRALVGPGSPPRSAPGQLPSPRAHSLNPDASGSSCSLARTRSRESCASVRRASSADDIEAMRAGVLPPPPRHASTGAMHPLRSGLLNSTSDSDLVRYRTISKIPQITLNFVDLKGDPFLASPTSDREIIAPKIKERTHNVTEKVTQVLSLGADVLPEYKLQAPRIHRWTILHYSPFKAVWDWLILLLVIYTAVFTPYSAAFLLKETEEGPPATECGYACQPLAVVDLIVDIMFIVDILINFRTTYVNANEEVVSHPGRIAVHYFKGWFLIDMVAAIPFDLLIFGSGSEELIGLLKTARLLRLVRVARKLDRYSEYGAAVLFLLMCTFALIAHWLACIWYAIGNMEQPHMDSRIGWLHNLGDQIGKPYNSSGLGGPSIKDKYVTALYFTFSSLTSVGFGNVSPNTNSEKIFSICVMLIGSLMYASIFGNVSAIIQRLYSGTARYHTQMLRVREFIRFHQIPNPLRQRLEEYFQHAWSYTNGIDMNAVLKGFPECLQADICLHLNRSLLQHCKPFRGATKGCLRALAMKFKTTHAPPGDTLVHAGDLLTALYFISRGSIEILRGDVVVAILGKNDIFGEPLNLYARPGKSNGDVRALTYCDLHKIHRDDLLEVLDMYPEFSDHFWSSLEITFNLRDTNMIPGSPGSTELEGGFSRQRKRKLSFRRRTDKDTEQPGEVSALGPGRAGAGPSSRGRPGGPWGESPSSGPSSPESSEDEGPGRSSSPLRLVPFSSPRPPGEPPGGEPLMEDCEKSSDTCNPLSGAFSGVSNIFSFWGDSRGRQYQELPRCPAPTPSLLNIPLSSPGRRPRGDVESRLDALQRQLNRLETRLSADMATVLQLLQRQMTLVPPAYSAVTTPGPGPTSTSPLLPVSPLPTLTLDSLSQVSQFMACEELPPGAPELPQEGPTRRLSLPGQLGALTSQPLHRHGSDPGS
# protocol_summary: primary screen, population patch clamp on CHO cells stably expressing hERG; higher = less effect of the substance
Hit rate of the full screen: of about 310,000 compounds, about 14,000 (4.5%) showed an effect of 50% or more. The effect is printed as a negative number. For the sample, strong results were picked, then their nearest neighbours and some compounds at random.
assay_endpoint: hERG current change (%, negative = inhibition) at 10uM (%)

>>> print(df.to_string())
                                    molecule  number
 0  N#Cc1c(Oc2ccc3ccccc3c2)sc(C(=O)c2ccccc2)c1N    11.1
 1    O=c1c2ccccc2nc(/C=C/c2ccc(Br)cc2)n1CCO    2.81
 2  CCOC(=O)N1CCC(NC(=O)Cn2c3c(c(-c4ccccc4Cl)cc2=O)CCC3)CC1   -8.61
 3  Cl.NC1C=CC=C(C(=O)O)C1 (centres unmarked)    3.23
 4  CCS(=O)(=O)NC(C)C(c1cccs1)N1CCN(c2ccc(OC)cc2)CC1 (centres unmarked)   -7.31
 5  CCCn1c(=O)c2ccccc2n2c(SCc3c(C(=O)OCC)oc4ccccc34)nnc12   -43.5
 6  CN(C)CCNC(=O)c1ccc2c(c1)N(Cc1ccc(F)cc1)CCS2   -32.8
 7  O=C(COC(=O)c1ccccc1NC(=O)c1ccco1)NC1CCS(=O)(=O)C1 (centres unmarked)   -2.03
 8            Cc1cc(NC(=O)NC(=O)c2ccccc2)no1    23.1
 9    O=C(CSc1nnc(COc2ccc(Br)cc2)o1)N1CCOCC1     -17
10  CCN(C(=O)COC(=O)c1ccccc1NCCO)C1CCS(=O)(=O)C1 (centres unmarked)   -5.97
11  COc1ccc(CN(C(=O)CN2C(=O)NC3(CCC(C)CC3)C2=O)C(C)Cc2cccs2)cc1 (centres unmarked)   -68.7
12  CN(C(=O)COC(=O)c1ccccc1NC(=O)c1ccco1)C1CCS(=O)(=O)C1 (centres unmarked)   -62.3
13  C=CCn1c(=O)c2ccccc2n2c(SCc3c(C(=O)OCC)oc4ccccc34)nnc12   -56.1
14  CCN(C(=O)COC(=O)c1ccccc1NC(=O)c1ccco1)C1CCS(=O)(=O)C1 (centres unmarked)   -72.1
15    C=CCn1c(=O)c2ccccc2n2c(SCC(=O)NC)nnc12   -1.24
16  O=C(NCCc1cccc(C(F)(F)F)c1)C1CCC(=O)N(Cc2ccc(Cl)cc2)C1 (centres unmarked)     -59
17  CC1CCC2(CC1)NC(=O)N(CC(=O)N(Cc1ccccc1)C(C)(C)C)C2=O (centres unmarked)    10.6
18  CC1CCC2(CC1)NC(=O)N(CC(=O)NCc1cccs1)C2=O (centres unmarked)    1.95
19  Cc1cc(NC(=O)/C=C/c2cccc(Cl)c2)n(-c2nc3ccccc3[nH]2)n1   -1.83
